testedOn: T1, Spy Q100L (E. coli, UniProt P77754 24-161, Q100L)
T1 construct: N-terminal serine from the Sumo fusion construct; the footnote says it of Spy purification in general; Spy, E. coli, mature protein; numbers count on: the mature protein; Variant of m1 found by genetic selection, remade by site-directed mutagenesis; also called super-Spy variant; source: purified; not shown: SUMO, N-terminal, cleaved (from the N-terminal serine said of Spy purification in general)
T1 sequence: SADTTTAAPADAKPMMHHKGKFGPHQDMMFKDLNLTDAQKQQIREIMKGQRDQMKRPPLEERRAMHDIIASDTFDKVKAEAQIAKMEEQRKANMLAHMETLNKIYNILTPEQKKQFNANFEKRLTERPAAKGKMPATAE
assayProtocol: BLI; biotinylated Im7 L53A I54A immobilised on streptavidin sensors (Octet RED); Spy variants at 2, 1, 0.5, 0.25 and 0.125 µM; 25°C; 40 mM HEPES, 150 mM NaCl, pH 7.5; 1:1 binding model, KD = koff/kon; apparent
conditionDescription: both partners purified
valueType: pKd
pKd here is simply -log10 of the concentration when that concentration is written in mol/L.

Q. Given the entry Biotinylated Im7 L53A I54A (natural protein, biotin (EZ-link NHS-biotin at 1:1 molar ratio; site not stated), N-terminal serine from the Sumo fusion construct; the footnote says it of Im7 purification in general; immunity protein 7 (Im7), colicin E7 immunity protein; Same protein as m10 with biotin; held on streptavidin sensors; also called biotin-conjugated Im7 L53A I54A; immunity protein 7 L53A I54A; source: purified from a Sumo fusion construct (Quan et al., 2011), biotinylated with EZ-link …) SMELKNSISDYTEAEFVQLLKEIEKENVAATDDVLDVLLEHFVKITEHPDGTDAAYYPSDNRDDSPEGIVKEIKEWRAANGKPGFKQG , report its measured pKd.
A. 6.64
